Target: T1, RVFV glycoprotein Gn head domain (154–469 aa) (Rift Valley fever virus), P21401
T1 chain: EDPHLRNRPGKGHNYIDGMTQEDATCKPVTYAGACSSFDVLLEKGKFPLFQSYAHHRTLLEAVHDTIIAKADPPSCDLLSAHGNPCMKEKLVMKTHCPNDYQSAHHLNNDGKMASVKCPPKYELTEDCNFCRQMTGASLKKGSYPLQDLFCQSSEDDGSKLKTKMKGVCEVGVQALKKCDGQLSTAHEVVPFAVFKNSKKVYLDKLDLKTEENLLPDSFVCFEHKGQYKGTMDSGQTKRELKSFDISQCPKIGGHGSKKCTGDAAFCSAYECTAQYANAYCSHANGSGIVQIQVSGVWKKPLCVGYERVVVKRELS
Assay: BLI
Details: modification not given
Readout Type: pKd
Give bare numbers, as −log10 of the molar value.

Please report pKd for the following binder: HVCLPSQFKCTNTNRCIPGIFRCNGQDNCGDGEDERDCPE [23-Fc]
6.59

Data provenance is paper PMC12839305.
